Here the recorded pKd is given for each entry.
Molecular target: MS2 coat protein, dlFG mutant (Escherichia phage MS2, UniProt P03612, del68-81insG)
Test: 4 mM Mg2+; no ligand; RNA-MaP array; 100 mM Tris-HCl pH 7.5, 80 mM KCl, 4 mM MgCl2, 0.1 mg/mL BSA, 1 mM DTT, 0.01 mg/mL yeast tRNA, 0.01% Tween-20; protein 1.5 nM to 3 uM; 37 C (Table S3)
Conditions: chain copies: 2; label: tethered by stalled RNA polymerase
Friendly reminder that pKd comes from taking -log10 of the concentration in mol/L.

Some solved cases for reference:
Eterna 7673920 (Same State - Theophylline B) (ssRNA) RNA: UGUAUGUGAUCUGAUACCAGCGUUGAUAACCUGAGGAUCACCCUGGUAAGGCGAAAGCCACGCCCUUGGCAGCAGAUCGCAUACU; 6.71
Eterna 6441202 (Exclusion NG 1) (ssRNA) RNA: ACAUUUUAUGCAGGAUAUUGACAUAGGAUUAAACAAGAAGGGCAUUACAUGAGGAUCACCCAUGUUUUAUUGGUAUAUAAGUUC; 7.81

# evaluate next
IN: Give me measured pKd, please, for this binder: Eterna 7610184 (Exclusion - Tryptophan B) (ssRNA) RNA: GGAGCUACGUCGGCCGCCACUAGCGGGUAUUGCGUGUACAUGAGGAUCACCCAUGUAAUACGGCCUAGGACCGGGACGUAGCUCC
OUT: 7.92
